- Measurement target: LATS2 (Homo sapiens, UniProt Q9NRM7)
- Sequence (Q9NRM7 whole entry): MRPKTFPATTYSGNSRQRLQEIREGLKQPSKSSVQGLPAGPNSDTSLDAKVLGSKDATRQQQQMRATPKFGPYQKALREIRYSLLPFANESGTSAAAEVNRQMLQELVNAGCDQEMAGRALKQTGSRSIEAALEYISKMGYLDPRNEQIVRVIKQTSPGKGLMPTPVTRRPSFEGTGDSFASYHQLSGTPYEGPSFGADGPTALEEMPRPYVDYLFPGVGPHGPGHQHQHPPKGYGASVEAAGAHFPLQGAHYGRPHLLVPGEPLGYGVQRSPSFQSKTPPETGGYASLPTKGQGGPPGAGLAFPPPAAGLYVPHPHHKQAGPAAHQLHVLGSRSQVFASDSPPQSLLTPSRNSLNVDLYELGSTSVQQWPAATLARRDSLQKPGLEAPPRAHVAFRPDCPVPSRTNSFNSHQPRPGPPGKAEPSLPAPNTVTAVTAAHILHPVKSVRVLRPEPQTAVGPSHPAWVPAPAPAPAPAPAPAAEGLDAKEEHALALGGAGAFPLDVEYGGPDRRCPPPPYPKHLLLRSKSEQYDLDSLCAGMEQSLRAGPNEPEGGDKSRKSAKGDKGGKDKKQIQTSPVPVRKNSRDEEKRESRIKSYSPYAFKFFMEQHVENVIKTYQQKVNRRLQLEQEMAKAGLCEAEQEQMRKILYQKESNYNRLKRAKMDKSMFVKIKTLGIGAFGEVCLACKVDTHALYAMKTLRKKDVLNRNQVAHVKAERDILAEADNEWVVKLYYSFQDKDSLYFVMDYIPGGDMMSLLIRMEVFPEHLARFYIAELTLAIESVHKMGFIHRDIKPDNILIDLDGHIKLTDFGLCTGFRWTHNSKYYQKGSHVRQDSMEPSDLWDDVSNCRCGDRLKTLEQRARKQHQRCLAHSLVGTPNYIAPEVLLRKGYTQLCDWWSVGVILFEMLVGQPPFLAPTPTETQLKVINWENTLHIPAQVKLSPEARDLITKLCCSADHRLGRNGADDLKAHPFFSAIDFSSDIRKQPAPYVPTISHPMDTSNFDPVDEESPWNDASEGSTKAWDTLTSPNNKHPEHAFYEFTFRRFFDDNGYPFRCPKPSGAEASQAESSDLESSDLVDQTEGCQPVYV
- Assay details: RBC HotSpot kinase assay (33P-ATP, P81 filter-binding), LATS2
- Format: biochemical
- Condition notes: biochemical kinase inhibition; read-out: LATS2 IC50
Mark True only for IC50 values smaller than 5 nM; exact matches and larger values are False.

hey, is IC50 for Cc1cc(-c2ccnc3[nH]cc(C#N)c23)ccc1[C@@]1(O)[C@H](C)CN(C(=O)[C@@H](CO)N(C)C)C[C@@H]1C lower than 5 nM or not?
True

hey, is IC50 for Cc1cc(-c2ccnc3[nH]cc(C#N)c23)cc(F)c1[C@@]1(O)[C@H](C)CN(C(=O)[C@@H]2CCCN2)C[C@@H]1C lower than 5 nM or not?
True

hey, is IC50 for Cc1cc(-c2ccnc3[nH]cc(C#N)c23)cc(F)c1[C@@]1(O)[C@H](C)CN(C(=O)[C@H](C)N)C[C@@H]1C lower than 5 nM or not?
False

hey, is IC50 for Cc1cc(-c2ccnc3[nH]cc(C#N)c23)cc(F)c1[C@@]1(O)[C@H](C)CN(C(=O)C(N)C(F)(F)F)C[C@@H]1C (stereo partly drawn) lower than 5 nM or not?
False

hey, is IC50 for Cc1cc(-c2ccnc3[nH]cc(C#N)c23)ccc1[C@@]1(O)[C@H](C)CN(C(=O)[C@@H](C)N)C[C@@H]1C lower than 5 nM or not?
False

hey, is IC50 for Cc1cc(-c2ccnc3[nH]cc(C#N)c23)cc(F)c1[C@@]1(O)[C@H](C)CN(C(=O)[C@H](N)CO)C[C@@H]1C [Compound 2007] lower than 5 nM or not?
False

Where these numbers come from: patent US20250361230A1
